# System tested: Focal adhesion kinase 1 (Homo sapiens) (UniProt Q05397)
# Sequence (Q05397 whole entry, looked up): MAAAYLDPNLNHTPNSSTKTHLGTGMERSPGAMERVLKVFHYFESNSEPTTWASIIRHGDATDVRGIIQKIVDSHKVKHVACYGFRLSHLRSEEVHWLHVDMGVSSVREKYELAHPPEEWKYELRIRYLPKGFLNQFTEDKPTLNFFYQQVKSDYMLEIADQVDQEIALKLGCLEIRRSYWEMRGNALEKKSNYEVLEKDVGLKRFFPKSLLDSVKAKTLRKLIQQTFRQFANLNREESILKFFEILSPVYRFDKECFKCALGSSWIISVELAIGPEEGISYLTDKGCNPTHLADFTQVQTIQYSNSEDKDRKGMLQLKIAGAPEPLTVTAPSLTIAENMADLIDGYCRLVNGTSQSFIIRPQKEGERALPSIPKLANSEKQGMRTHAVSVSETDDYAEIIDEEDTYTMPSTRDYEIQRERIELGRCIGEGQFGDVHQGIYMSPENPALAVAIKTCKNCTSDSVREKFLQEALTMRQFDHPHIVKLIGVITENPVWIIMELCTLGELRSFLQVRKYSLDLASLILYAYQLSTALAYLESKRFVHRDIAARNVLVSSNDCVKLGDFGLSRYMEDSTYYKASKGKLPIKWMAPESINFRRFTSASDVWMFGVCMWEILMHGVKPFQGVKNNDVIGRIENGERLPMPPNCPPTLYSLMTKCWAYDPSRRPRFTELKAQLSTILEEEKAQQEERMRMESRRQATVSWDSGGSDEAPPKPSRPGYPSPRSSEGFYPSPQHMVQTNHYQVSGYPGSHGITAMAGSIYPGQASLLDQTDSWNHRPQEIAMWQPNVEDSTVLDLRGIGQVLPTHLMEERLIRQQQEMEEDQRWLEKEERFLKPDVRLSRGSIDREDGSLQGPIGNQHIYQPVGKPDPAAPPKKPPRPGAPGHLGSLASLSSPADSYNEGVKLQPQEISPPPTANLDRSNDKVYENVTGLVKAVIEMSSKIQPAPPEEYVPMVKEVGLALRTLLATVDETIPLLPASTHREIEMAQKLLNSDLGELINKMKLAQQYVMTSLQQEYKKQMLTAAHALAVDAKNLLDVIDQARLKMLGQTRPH
# Assay protocol: PTK2 protein binding on printed compound slides – biochemical, small-molecule microarray, 635/667 nm fluorescence, BSA, DTT, primary screen (AID 1130);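 also: composite of spot emission at 667 nm and signal to noise over triplicate slides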
# Condition summary: 635 nm fluorescence, higher = more signal
Measured quantity: composite z-score
Just the number, please, no unit attached.

Tested system Focal adhesion kinase 1 (Homo sapiens) (UniProt Q05397); composite z-score recorded for CCCCC(=C=CC[C@H](O)c1ccccc1OCCO)C[C@H](O)c1ccccn1 was -0.255

Tested system Focal adhesion kinase 1 (Homo sapiens) (UniProt Q05397); composite z-score recorded for C=CCNC(=O)[C@@H]1[C@H]2C(=O)O[C@H](c3ccccc3)[C@H](c3ccccc3)N2[C@H](c2ccc(O)cc2)[C@@]12C(=O)Nc1ccc(C#CCCO)cc12 was 1.33

Tested system Focal adhesion kinase 1 (Homo sapiens) (UniProt Q05397); composite z-score recorded for COc1ccc(C#Cc2ccc3c(c2)[C@]2(C(=O)N3)[C@H](C(=O)O)[C@H]3C(=O)O[C@H](c4ccccc4)[C@H](c4ccccc4)N3[C@@H]2c2ccc(OCCO)cc2)cc1 was 0.681

Tested system Focal adhesion kinase 1 (Homo sapiens) (UniProt Q05397); composite z-score recorded for C[N+](C)(C)CCCC[C@@H]1NC(=O)[C@@H]2C[C@H](C(=O)O)[C@H](c3cccc(OCCO)c3)N2C1=O was -0.466

Tested system Focal adhesion kinase 1 (Homo sapiens) (UniProt Q05397); composite z-score recorded for CCCC[C@@H](O)C1=C(COc2ccccc2)Cn2c(=O)n(-c3ccccc3)c(=O)n2[C@H]1CO was -0.103

Tested system Focal adhesion kinase 1 (Homo sapiens) (UniProt Q05397); composite z-score recorded for CCOC(=O)C[C@H]1[C@H](OC(=O)c2ccc(C(=O)c3ccccc3)cc2)[C@@H](NC(=O)C2CCCCC2)c2cc(OCCCO)ccc2N1C(=O)Cc1ccc(OC)cc1 was 0.494

Tested system Focal adhesion kinase 1 (Homo sapiens) (UniProt Q05397); composite z-score recorded for CC(=O)NCCCC[C@@H]1NC(=O)[C@@H]2C[C@H](C(=O)NCCCC[N+](C)(C)C)[C@H](c3cccc(OCCO)c3)N2C1=O was 0.164

Tested system Focal adhesion kinase 1 (Homo sapiens) (UniProt Q05397); composite z-score recorded for COC(=O)[C@@]1(Cc2ccccc2)[C@H]2c3cc(C(=O)N4CCCC4)n(Cc4ccccc4)c3C[C@H]2CN1C(=O)c1ccccc1 was 0.756

Tested system Focal adhesion kinase 1 (Homo sapiens) (UniProt Q05397); composite z-score recorded for CC[C@@H]1[C@@H]2C3C(=O)N(CC)C(=O)C3CC(=O)[C@@H]2[C@H](c2ccc(C)cc2)N1S(=O)(=O)c1ccc(C)cc1 (some centres undefined) was 0.381

Tested system Focal adhesion kinase 1 (Homo sapiens) (UniProt Q05397); composite z-score recorded for COc1ccc([Si](C)(C)[C@@H]2[C@@H](CCO)O[C@]3(C(=O)N(Cc4ccccc4)c4ccc(N5CCCCC5=O)cc43)[C@H]2C)cc1 was 1.61

Tested system Focal adhesion kinase 1 (Homo sapiens) (UniProt Q05397); composite z-score recorded for COc1ccccc1CN1C(=O)c2ccccc2[C@](Cc2ccccc2I)(C(=O)NCCN2CCOCC2)[C@@H]1c1ccc(CO)cc1 was 0.467

Tested system Focal adhesion kinase 1 (Homo sapiens) (UniProt Q05397); composite z-score recorded for C=C(/C(=C/C[C@@H](OC(C)=O)c1ccccc1OCCO)c1cnc2ccccc2c1)C(C)C was 0.0328

Tested system Focal adhesion kinase 1 (Homo sapiens) (UniProt Q05397); composite z-score recorded for OCc1ccc(-c2cc[n+](Cc3cccc(OC(F)(F)F)c3)cc2)cc1 was 0.0665

Tested system Focal adhesion kinase 1 (Homo sapiens) (UniProt Q05397); composite z-score recorded for C=C(C(=O)CC[C@H](OC(=O)c1cccnc1)c1ccc(OCCO)cc1)C(C)C was 0.091

Tested system Focal adhesion kinase 1 (Homo sapiens) (UniProt Q05397); composite z-score recorded for COCC(=C=CC[C@@H](O)c1ccccc1OCCO)C[C@@H](O)c1ccccn1 was 0.287

Tested system Focal adhesion kinase 1 (Homo sapiens) (UniProt Q05397); composite z-score recorded for COCCOC(=O)N1C(=O)[C@@]2(c3cc(C#CC4(O)CCCCCC4)ccc31)[C@H](C(=O)NC[C@H](O)c1ccccc1)[C@H]1C(=O)O[C@H](c3ccccc3)[C@H](c3ccccc3)N1[C@@H]2c1ccc(OCCO)cc1 was 0.444

Tested system Focal adhesion kinase 1 (Homo sapiens) (UniProt Q05397); composite z-score recorded for COC(=O)[C@@]1(Cc2ccc(OC)cc2)[C@H]2c3cc(C(=O)N4CCCC4)n(CCF)c3C[C@H]2CN1C(=O)c1ccccc1 was 0.896

Tested system Focal adhesion kinase 1 (Homo sapiens) (UniProt Q05397); composite z-score recorded for COC(=O)C(CC#Cc1ccc2c(c1)[C@]1(C(=O)N2)[C@H](C(=O)N2CCc3cc(OC)c(OC)cc3C2)[C@H]2C(=O)O[C@H](c3ccccc3)[C@H](c3ccccc3)N2[C@@H]1c1ccc(OCCO)cc1)C(=O)OC was 0.344

Tested system Focal adhesion kinase 1 (Homo sapiens) (UniProt Q05397); composite z-score recorded for COC(=O)c1c(CC[C@@H](CO)NC(=O)N[C@@H](C)Cn2cc(C3(O)CCCC3)nn2)oc(C(C)=O)c1C(=O)OC was -0.118

Tested system Focal adhesion kinase 1 (Homo sapiens) (UniProt Q05397); composite z-score recorded for CCCCC(O)C1C=CC2C(=O)N(Cc3ccccc3)C(=O)C2N1n1cnnc1 (centres undefined) was 0.242

Tested system Focal adhesion kinase 1 (Homo sapiens) (UniProt Q05397); composite z-score recorded for COc1ccc([Si](C)(C)[C@@H]2[C@@H](CC(=O)N3Cc4ccccc4C[C@H]3CO)O[C@]3(C(=O)N(Cc4cccc(N5CCCCC5=O)c4)c4ccccc43)[C@H]2C)cc1 was 0.739

Tested system Focal adhesion kinase 1 (Homo sapiens) (UniProt Q05397); composite z-score recorded for O=C(N1CCOCC1)[C@@]1(CCS(=O)(=O)c2ccccc2)COC(c2ccc(OCCCO)cc2)=N1 was 0.307

Tested system Focal adhesion kinase 1 (Homo sapiens) (UniProt Q05397); composite z-score recorded for CN(C)CCCN1C(=O)[C@@]2(Cc3ccccc31)c1ccccc1C(=O)N(Cc1ccccc1)[C@H]2c1ccc(CO)cc1 was -0.0553

Tested system Focal adhesion kinase 1 (Homo sapiens) (UniProt Q05397); composite z-score recorded for COc1ccc([Si](C)(C)[C@@H]2[C@@H](CCO)O[C@]3(C(=O)N(Cc4ccccc4)c4ccc(N5C(=O)COc6ccccc65)cc43)[C@H]2C)cc1 was 0.294

Tested system Focal adhesion kinase 1 (Homo sapiens) (UniProt Q05397); composite z-score recorded for COc1cc(C(O)C2C=CC3C(=O)N(C)C(=O)C3N2NC(=O)OC(C)(C)C)cc(OC)c1OC (centres undefined) was 0.474

Tested system Focal adhesion kinase 1 (Homo sapiens) (UniProt Q05397); composite z-score recorded for CN(C)CCCNC(=O)[C@@]1(Cc2ccccc2I)c2ccccc2C(=O)N(Cc2ccccc2Cl)[C@H]1c1ccc(CO)cc1 was 0.224

Tested system Focal adhesion kinase 1 (Homo sapiens) (UniProt Q05397); composite z-score recorded for C=CC[C@]1(C(=O)N(C)C)N=C(c2ccc(OCCCO)cc2)O[C@H]1c1ccccc1 was 1.04

Tested system Focal adhesion kinase 1 (Homo sapiens) (UniProt Q05397); composite z-score recorded for C[C@@]1([C@@H](NC(=O)c2cccs2)c2ccc(-c3ccccc3)cc2)C[C@H]1C1CCCCC1 was 0.429

Tested system Focal adhesion kinase 1 (Homo sapiens) (UniProt Q05397); composite z-score recorded for Cc1ccc(S[C@]2(C(=O)O)CC(=O)N(Cc3ccccc3C(F)(F)F)[C@@H]2c2ccc(CO)cc2)cc1 was 0.0068
